Data origin, for the record: patent US7476673B2

# target or test system: RARα (Homo sapiens, UniProt P10276)
# Sequence (P10276 183-417 limits assumed): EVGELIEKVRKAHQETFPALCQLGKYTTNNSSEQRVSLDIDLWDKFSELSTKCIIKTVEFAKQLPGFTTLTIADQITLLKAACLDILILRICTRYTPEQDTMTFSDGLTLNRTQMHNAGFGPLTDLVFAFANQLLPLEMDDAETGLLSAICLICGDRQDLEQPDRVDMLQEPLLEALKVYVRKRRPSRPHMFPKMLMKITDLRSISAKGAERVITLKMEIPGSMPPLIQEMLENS
# test: chimeric receptor transactivation assay, RARα
# Assay type: cell-based
# conditions used: percentage of maximum compared to standard TTNPB
# Method: The compounds of the invention were tested in certain assays for activity as agonists of RAR and RXR retinoid receptors. […] Efficacy in a transactivation assay is expressed as a percentage of the maximum potency attained by the compound compared to a standard which, in this case, is the compound 4-[(1E)-2-(5,6,7,8-tetrahydro-5,5,8,8-tetramethyl-2-naphthalenyl)-1-propenyl]-benzoic acid. […]
Measured % Efficiency α values are reported for all entries that follow.
Respond with the bare value in %.

> print(dat)
                                   compound    assay.metric  numeric.result
1  CC1(C)CCCc2cc(C(C=Cc3ccc(C(=O)O)cc3)=NO)ccc21 [drawing 17]  % Efficiency α              42

Query: Endpoint output: % Efficiency α of CC1(C)CC(C)(C)c2cc(C(C=Cc3ccc(C(=O)O)cc3)=NO)ccc2O1 [drawing 25] . Value?
Response: 60

Query: Endpoint output: % Efficiency α of CC1(C)CCC(C)(C)c2nc(C(C=Cc3ccc(C(=O)O)cc3)=NO)cnc21 [drawing 35] . Value?
Response: 54

Query: Endpoint output: % Efficiency α of CC1(C)CCC(C)(C)c2nc(C(C=Cc3ccc(C(=O)O)cc3)=NO)cnc21 [drawing 34] . Value?
Response: 41

Query: Endpoint output: % Efficiency α of `CC1(C)CCCc2ccc(C(/C=C/c3ccc(C(=O)O)cc3F)=N/O)cc21` . Value?
Response: 39

Query: Endpoint output: % Efficiency α of CC1(C)CC(C)(C)c2cc(C(C=Cc3ccc(C(=O)O)cc3)=NO)ccc21 [drawing 30] . Value?
Response: 55

Query: Endpoint output: % Efficiency α of `CC1=CCC(C)(C)c2cc(C(/C=C/c3ccc(C(=O)O)cc3)=N\O)ccc21` . Value?
Response: 50
